Cited source: PubChem BioAssay AID316

- Tested on: P1534 leukemia ip, CD2F1 mice, survival T/C
- Method Notes: NCI In Vivo Anticancer Drug Screen. Data for tumor model P1534 Leukemia (intraperitoneal) in CD2F1 (CDF1) mice
- Reported Conditions: endpoint: mean survival time; dose: 12.5 mg/kg/injection; schedule: Q01DX010 (ip); vehicle: saline; higher = longer survival
Inconclusive results and toxic doses are left out.
Provide the reported T/C of each item.

Reported T/C ( OC(CBr)C(O)C(O)C(O)CBr (centres undefined) ) = 103 % of control

For reference, reported T/C for `COc1ccc2cc3[n+](cc2c1O)CCc1cc2c(cc1-3)OCO2` stands at 111 % of control

Form field T/C, entry `CN(C)/N=N/c1nc[nH]c1C(N)=O` : 107 % of control

O=C(NCCCCC(NC(=O)c1ccccc1)C(=O)NCCCCCCCCCCNC(=O)C(CCCCNC(=O)c1ccccc1)NC(=O)c1ccccc1)c1ccccc1 (centres undefined) yielded T/C of 103 % of control

Please fill in: T/C reported for `COc1cc(-c2ccc(Nc3ccccc3C(=O)O)c(OC)c2)ccc1Nc1ccccc1C(=O)O` = 107 % of control

So for CC1CCCCN1 (centres undefined) , the logged T/C turned out to be 103 % of control

The compound identified as `CC(C)=CCN=C(N)N` registered its T/C at 103 % of control

// T/C lookup, compound = NCCCC(N)C(=O)NCCCCCCNCCCCCCNC(=O)C(N)CCCN (centres undefined) , result: 100 % of control

// T/C lookup, compound = `COc1ccc2cc3[n+](cc2c1OC)CCc1cc2c(cc1-3)OCO2` , result: 123 % of control

###

- System: P1534 leukemia ip, CD2F1 mice, survival T/C
- Method Notes: NCI In Vivo Anticancer Drug Screen. Data for tumor model P1534 Leukemia (intraperitoneal) in CD2F1 (CDF1) mice
- Reported Conditions: endpoint: mean survival time; dose: 6.25 mg/kg/injection; schedule: Q01DX010 (ip); vehicle: saline; higher = longer survival
Toxic doses and inconclusive results are not listed.
Value Type: T/C

Recorded result, COc1c(OC2OC(CO)C(O)C(O)C2O)cc2c(c1OC)-c1ccc(OC)c(=O)cc1C(NC(C)=O)CC2 (stereo not drawn) , T/C: 107 % of control

Reported T/C of `O=c1cccc2n1CC1CNC[C@H]2C1` : 100 % of control

For reference, reported T/C for O=C(NCCCCC(NC(=O)c1ccccc1)C(=O)NCCCCCCCCCCNC(=O)C(CCCCNC(=O)c1ccccc1)NC(=O)c1ccccc1)c1ccccc1 (stereo not drawn) stands at 103 % of control

Record summary for CC1CCCCN1 (stereo not drawn) : reported T/C = 103 % of control

The reported T/C of the compound `CN(C)/N=N/c1nc[nH]c1C(N)=O` was 100 % of control

Item: `NCCCCCCNCCCCCCN` | T/C: 100 % of control

Looking up `COc1ccc2cc3[n+](cc2c1OC)CCc1cc2c(cc1-3)OCO2` , I see its T/C listed as 110 % of control

The recorded T/C for entry `C1CCNC1` equals 100 % of control

###

- System: P1534 leukemia ip, CD2F1 mice, survival T/C
- Method Notes: NCI In Vivo Anticancer Drug Screen. Data for tumor model P1534 Leukemia (intraperitoneal) in CD2F1 (CDF1) mice
- Reported Conditions: endpoint: mean survival time; dose: 5.0 mg/kg/injection; schedule: Q01DX010 (ip); vehicle: saline
Toxic doses and inconclusive results are not listed. The calls were made as follows: active = survival T/C of 150% or more; inactive = T/C below 125% in these data.
Hi there, use one of these labels in your reply, thanks! active, inactive

q: Call for entry CCC1=CC2CN3CCc4c([nH]c5ccccc45)C(C(=O)OC)(C2)C13 (centres undefined) :
a: inactive

q: Per the records of this test, what outcome belongs to `O=C(O)c1[nH]c(=O)[nH]c(=O)c1F` ?
a: active

q: Just curious, what result did C=C(C(=O)OC1CC2CCC(C1)N2C)c1ccccc1 (centres undefined) get here?
a: inactive

q: Hi, sorry to bother you, what did the test record for `COc1ccc2c(c1O)-c1c(OC)c(OC)cc3c1[C@H](C2)[N+](C)(C)CC3` ?
a: inactive

q: Please let me know the test result on file for O=C(NCCCCC(NC(=O)OCc1ccccc1)C(=O)NCCCNCCCCNCCCNC(=O)C(CCCCNC(=O)OCc1ccccc1)NC(=O)OCc1ccccc1)OCc1ccccc1 (centres undefined) .
a: inactive

q: GET /call?item= `OCCOCCN1CCN(CCCN2c3ccccc3Sc3ccc(C(F)(F)F)cc32)CC1` returns the recorded outcome of this test.
a: inactive

q: Test call, this compound: COC(=O)C1C(O)CCC2CN3CCc4c([nH]c5ccccc45)C3CC21 (centres undefined)
a: inactive

q: Would you mind telling me which call this test gave NC(N)=NCCCC(N)C(=O)NCCCCCCNCCCCCCNC(=O)C(N)CCCN=C(N)N (centres undefined) ?
a: inactive

q: Tell me the recorded outcome of this test for `Nc1nc(=S)c2[nH]cnc2[nH]1` .
a: inactive
